Tested on: HEL
MEASUREMENT_NOTES: Inhibition against DNA of uninfected HEL cells by incorporation of [3H]TdR.
Assay type: functional, cell-based
SETUP_CONDITIONS: Homo sapiens
pIC50: −log10 of the molar value.

[
  {
    "TEST_SMILES": "Nc1nc(O)cc(Nc2ccc(Cl)c(Cl)c2)n1",
    "COMPARISON_OPERATOR": "=",
    "pIC50": 4.49
  },
  {
    "TEST_SMILES": "Nc1[nH]c(Nc2ccc(Cl)c(Cl)c2)nc2ncnc1-2",
    "COMPARISON_OPERATOR": "=",
    "pIC50": 5.47
  },
  {
    "TEST_SMILES": "Oc1cc(Nc2cc(F)cc(Cl)c2)nc(O)n1",
    "COMPARISON_OPERATOR": "<",
    "pIC50": 3.70
  },
  {
    "TEST_SMILES": "Nc1nc(Nc2cc(Cl)cc(Cl)c2)nc2c1ncn2COC(CO)CO",
    "COMPARISON_OPERATOR": "=",
    "pIC50": 5.30
  },
  {
    "TEST_SMILES": "Oc1cc(Nc2cc(Cl)cc(Cl)c2)nc(O)n1",
    "COMPARISON_OPERATOR": "=",
    "pIC50": 4.00
  },
  {
    "TEST_SMILES": "Oc1cc(Nc2ccc(F)c(Cl)c2)nc(O)n1",
    "COMPARISON_OPERATOR": "<",
    "pIC50": 3.70
  },
  {
    "TEST_SMILES": "Nc1nc(Nc2cc(Cl)cc(Cl)c2)nc2c1ncn2COCCO",
    "COMPARISON_OPERATOR": "=",
    "pIC50": 5.85
  },
  {
    "TEST_SMILES": "Oc1cc(Nc2ccc(F)c(F)c2)nc(O)n1",
    "COMPARISON_OPERATOR": "<",
    "pIC50": 3.70
  },
  {
    "TEST_SMILES": "Nc1nc(O)cc(Nc2ccc(F)c(Cl)c2)n1",
    "COMPARISON_OPERATOR": "=",
    "pIC50": 3.96
  },
  {
    "TEST_SMILES": "Oc1[nH]c(Nc2ccc(Cl)c(Cl)c2)nc2ncnc1-2",
    "COMPARISON_OPERATOR": "=",
    "pIC50": 4.22
  },
  {
    "TEST_SMILES": "Nc1nc2c(ncn2COC(CO)CO)c(=O)[nH]1",
    "COMPARISON_OPERATOR": "=",
    "pIC50": 5.15
  },
  {
    "TEST_SMILES": "Nc1[nH]c(Nc2cc(Cl)cc(Cl)c2)nc2ncnc1-2",
    "COMPARISON_OPERATOR": "=",
    "pIC50": 4.40
  },
  {
    "TEST_SMILES": "Nc1nc(O)cc(Nc2cc(F)cc(Cl)c2)n1",
    "COMPARISON_OPERATOR": "<",
    "pIC50": 3.70
  },
  {
    "TEST_SMILES": "Nc1nc(O)cc(Nc2cc(F)cc(F)c2)n1",
    "COMPARISON_OPERATOR": "<",
    "pIC50": 3.70
  },
  {
    "TEST_SMILES": "Nc1nc(O)cc(Nc2cc(Cl)cc(Cl)c2)n1",
    "COMPARISON_OPERATOR": "=",
    "pIC50": 4.02
  },
  {
    "TEST_SMILES": "OC[C@H]1O[C@@H](n2cnc3c(O)nc(Nc4cc(Cl)cc(Cl)c4)nc32)C[C@@H]1O",
    "COMPARISON_OPERATOR": "=",
    "pIC50": 4.89
  },
  {
    "TEST_SMILES": "Oc1cc(Nc2ccc(Cl)c(Cl)c2)nc(O)n1",
    "COMPARISON_OPERATOR": "<",
    "pIC50": 3.70
  },
  {
    "TEST_SMILES": "Nc1nc(Cl)cc(Nc2cc(Cl)cc(Cl)c2)n1",
    "COMPARISON_OPERATOR": "=",
    "pIC50": 4.49
  }
]
